System: Epidermal growth factor receptor (Homo sapiens), P00533 [L858R]
Sequence (P00533 whole entry L858R): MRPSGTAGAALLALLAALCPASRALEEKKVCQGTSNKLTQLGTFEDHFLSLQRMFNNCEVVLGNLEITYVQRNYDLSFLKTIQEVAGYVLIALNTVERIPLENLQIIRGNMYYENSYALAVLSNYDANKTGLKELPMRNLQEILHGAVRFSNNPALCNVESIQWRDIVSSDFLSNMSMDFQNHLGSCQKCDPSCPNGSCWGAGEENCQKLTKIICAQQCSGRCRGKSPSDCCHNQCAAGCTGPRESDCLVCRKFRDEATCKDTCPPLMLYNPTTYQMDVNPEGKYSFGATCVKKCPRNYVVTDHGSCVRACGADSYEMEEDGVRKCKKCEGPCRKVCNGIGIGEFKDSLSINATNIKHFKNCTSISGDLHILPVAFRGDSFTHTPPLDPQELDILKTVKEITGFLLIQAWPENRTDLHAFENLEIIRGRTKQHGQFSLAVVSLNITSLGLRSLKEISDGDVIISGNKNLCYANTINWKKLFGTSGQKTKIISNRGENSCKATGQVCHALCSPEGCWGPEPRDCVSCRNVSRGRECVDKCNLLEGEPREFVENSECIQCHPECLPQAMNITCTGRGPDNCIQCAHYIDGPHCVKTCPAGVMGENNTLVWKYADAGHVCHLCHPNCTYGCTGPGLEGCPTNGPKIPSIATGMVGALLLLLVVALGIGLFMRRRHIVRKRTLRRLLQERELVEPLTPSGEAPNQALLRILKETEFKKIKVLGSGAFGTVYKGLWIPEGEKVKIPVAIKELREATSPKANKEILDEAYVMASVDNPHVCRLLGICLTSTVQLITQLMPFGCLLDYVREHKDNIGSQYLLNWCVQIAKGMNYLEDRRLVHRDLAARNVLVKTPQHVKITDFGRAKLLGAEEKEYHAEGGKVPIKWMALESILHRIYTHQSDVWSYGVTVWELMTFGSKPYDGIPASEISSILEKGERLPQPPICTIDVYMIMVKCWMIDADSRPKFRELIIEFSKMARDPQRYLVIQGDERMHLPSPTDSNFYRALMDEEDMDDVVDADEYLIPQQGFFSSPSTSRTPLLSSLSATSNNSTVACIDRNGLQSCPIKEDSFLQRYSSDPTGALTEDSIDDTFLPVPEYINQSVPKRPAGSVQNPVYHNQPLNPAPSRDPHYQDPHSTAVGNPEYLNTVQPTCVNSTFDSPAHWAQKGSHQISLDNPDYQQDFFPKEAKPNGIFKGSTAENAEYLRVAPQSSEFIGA
condition-context: at 0.1 µM
metric-name: inhibition
Write your answer as a measured quantity: the number, then the unit.

Examples from the recorded data:
CS(=O)(=O)CCNCc1ccc(-c2ccc3ncnc(Nc4ccc(OCc5cccc(F)c5)c(C(F)(F)F)c4)c3c2)o1: 6.6%
O=C1Nc2ccc(C(=O)c3ccco3)cc2C1=Cc1cc(Cl)c(O)c(Cl)c1: 4.06%
CC1=C(C(=O)Nc2ccc3[nH]ncc3c2)C(c2ccc(F)cc2)NC(=O)N1 (stereo not given): 3.85%

Query string: Answer briefly: inhibition recorded on Epidermal growth factor receptor (Homo sapiens), P00533 [L858R] for COc1ccc2cc(-c3c(-c4ccncc4)nc(-c4ccc([S+](C)[O-])cc4)n3C)ccc2c1 (stereo not given)
Result string: 2.1%

Query string: Answer briefly: inhibition recorded on Epidermal growth factor receptor (Homo sapiens), P00533 [L858R] for CNC(=O)c1cncc(/C=C/c2c(Cl)cccc2Cl)c1
Result string: 0.61%

Query string: Answer briefly: inhibition recorded on Epidermal growth factor receptor (Homo sapiens), P00533 [L858R] for COc1ccc(COc2ccc(Cc3cnc(N)nc3N)cc2OC)cc1
Result string: 0.93%

Query string: Answer briefly: inhibition recorded on Epidermal growth factor receptor (Homo sapiens), P00533 [L858R] for Cc1ccc(C(=O)NC2CCCCC2)cc1-c1ccc(C(=O)NCC2CC2)cc1
Result string: 1.02%

Query string: Answer briefly: inhibition recorded on Epidermal growth factor receptor (Homo sapiens), P00533 [L858R] for COc1cc2c(cc1Nc1nc(N3CCc4ccccc43)c3cc[nH]c3n1)N(C(=O)CN(C)C)CC2
Result string: 1.45%

Query string: Answer briefly: inhibition recorded on Epidermal growth factor receptor (Homo sapiens), P00533 [L858R] for CS(=O)(=O)Nc1ccc(N/C=C2\C(=O)Nc3ccccc32)cc1
Result string: -0.02%

Query string: Answer briefly: inhibition recorded on Epidermal growth factor receptor (Homo sapiens), P00533 [L858R] for CCn1c(-c2nonc2N)nc2c(N3CCCC3)nccc21
Result string: -0.34%

Query string: Answer briefly: inhibition recorded on Epidermal growth factor receptor (Homo sapiens), P00533 [L858R] for Cc1ccc(NC(=O)c2ccnc(N3CCCC3)c2)cc1-c1ccc(C(=O)NCC2CC2)cc1
Result string: -1.08%

Query string: Answer briefly: inhibition recorded on Epidermal growth factor receptor (Homo sapiens), P00533 [L858R] for CC1=C(C(=O)Nc2ccc3[nH]ncc3c2)C(c2ccc(Cl)c(Cl)c2)CC(=O)N1 (stereo not given)
Result string: 1.45%

###

tested-system: Aurora kinase C (Homo sapiens);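 also: values are the mean inhibition of Aurora-C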
condition-context: at 0.1 µM
metric-name: inhibition

Examples from the recorded data:
COC(=O)Nc1nc2cc(Oc3cccc(NC(=O)Nc4cc(C(F)(F)F)ccc4F)c3)ccc2[nH]1: 0.03%
Fc1cccc(COc2ccc(Nc3ncnc4sc(-c5cccs5)cc34)cc2Cl)c1: 1.7%
COc1cc(C=NNc2ncnc3c2cnn3-c2ccccc2)ccc1O: 9.9%
O=C1NC(=O)C(N2CCc3ccccc32)=C1c1ccc(Cl)cc1: 3.07%
N#Cc1c(NC(=O)c2cccc3ccccc23)sc2c1CCCC2: 1.03%

Note: attention shifts to another entry.
Query string: Answer briefly: inhibition recorded on Aurora kinase C (Homo sapiens) for O=C(Nc1n[nH]c2nc(-c3ccco3)c(Br)cc12)C1CC1
Result string: 2.71%

Cited source for all entries: ChEMBL document CHEMBL1961873
